- CONDITION_PARAMETERS: chromatographic retention
Below, each entry is listed alongside its reported Log Ko.
QUANTITY: Log Ko

• Cc1c(OCC2CC2)ccnc1CSc1nc2ccccc2[nH]1 = 0.46
• COc1ccnc(CSc2nc3cc(CO)ccc3[nH]2)c1C = -0.66
• Cc1cnc(CSc2nc3cc(Cl)ccc3[nH]2)c(C)c1 = 0.45
• Cc1c(OCC(F)(F)F)ccnc1CSc1nc2ccccc2[nH]1 [LANSOPRAZOLE SULFIDE] = 0.28
• Cc1c(OCc2ccccc2)ccnc1CSc1nc2ccccc2[nH]1 = 0.67
• C=CCOc1ccnc(CSc2nc3ccccc3[nH]2)c1C = 0.26
• CCOc1ccnc(CSc2nc3ccccc3[nH]2)c1C = 0.19
• COCCCOc1ccnc(CSc2nc3ccccc3[nH]2)c1C = 0.07
• COc1c(C)cnc(CSc2nc3cc(C(C)(C)C)ccc3[nH]2)c1C = 0.86
• c1ccc2[nH]c(SCc3cc(OCC4CC4)ccn3)nc2c1 = 0.13
• Cc1ccnc(CSc2nc3ccccc3[nH]2)c1 = -0.21
• COc1ccnc(CSc2nc3cc(F)ccc3[nH]2)c1OC = 0.44
• Cc1c(OCC(C)C)ccnc1CSc1nc2ccccc2[nH]1 = 0.75
• COCCOc1ccnc(CSc2nc3ccccc3[nH]2)c1C = -0.17
• COc1ccc2[nH]c(SCc3ncc(C)c(OC)c3C)nc2c1 [UFIPRAZOLE] = 0
• C#CCOc1ccnc(CSc2nc3ccccc3[nH]2)c1C = -0.01
• Cc1cnc(CSc2nc3cc(C)ccc3[nH]2)c(C)c1 = 0.23
• Clc1ccnc(CSc2nc3ccccc3[nH]2)c1 = -0.08
• CC(=O)c1ccc2[nH]c(SCc3cc(C(C)(C)C)ccn3)nc2c1 = 0.18
• COc1ccnc(CSc2nc3ccccc3[nH]2)c1C = -0.08
• CC(=O)c1ccc2[nH]c(SCc3ncc(C)cc3C)nc2c1 = -0.11
• COc1c(C)cnc(CSc2nc3ccccc3[nH]2)c1C = 0.05
• COc1ccnc(CSc2nc3ccccc3[nH]2)c1 = -0.3
• COc1ccc2[nH]c(SCc3cc(SC)ccn3)nc2c1 = -0.16
